System: SW-620
Assay: NCI tumour cell line growth inhibition, 48 h
The source made the active and inactive calls. Cut-off read from the data, not from the text of the source: active = GI50 up to about 1.1 µM and inactive = higher.
Reported GI50 values for a set of molecules
Observable: GI50

• CC1=NN(c2cccc(Cl)c2)C2(C1=Cc1ccc(O)cc1)C(Cl)C(=O)N2c1nc2ccccc2s1 (stereo not drawn) = 15.4 µM (inactive)
• COC(=O)C(=O)c1c2ccccc2n2ccc3c4ccccc4[nH]c3c12 = > 10 µM (inactive)
• N=C(N)N/N=C/c1c(-c2ccc([N+](=O)[O-])cc2)nc2n1CCS2 = 2.53 µM (inactive)
• O=c1[nH]c2nc3ccccc3c(=O)n2/c1=C/c1ccccc1 = 17.7 µM (inactive)
• CSc1cnn(CCC#N)c(=O)n1 = 74.6 µM (inactive)
• O=c1cc(N2CCNCC2)nc2ccccn12 = > 100 µM (inactive)
• C=CCCCCCCCCCOC1C=CC(OC(C)=O)C(COC(C)=O)O1 (stereo not drawn) = 57 µM (inactive)
• CC(NC(=O)/C(=C/c1ccccc1)NC(=O)c1ccccc1)C(=O)O (stereo not drawn) = > 100 µM (inactive)
• COc1cc2[nH]c(=O)c3cc(C)cc4c(Cl)nc(c1OC)c2c43 = > 100 µM (inactive)
• c1cc(-c2ccc(Oc3ccc(-c4ccncc4)cc3)cc2)ccn1 = 4.37 µM (inactive)
• COC(=O)C1=C(O)C(C(=O)OC)[C@]2(O)[C@H](C(=O)OC)[C@H]1C[C@@H](c1ccc([N+](=O)[O-])cc1)[C@H]2C(=O)OC (stereo partly drawn) = 16.6 µM (inactive)
• C=CC1ON(C)CCc2cc(OC)c(OC)cc21 (stereo not drawn) = > 100 µM (inactive)
• NC(=O)NC(CC(=O)O)C(=O)O (stereo not drawn) = > 100 µM (inactive)
• O=C1CCSc2nc(-c3ccc4c(c3)OCO4)nn21 = > 10 µM (inactive)
• Cc1ccc(C(=O)N/N=C(\N=N\c2ccc(C(=O)O)cc2)c2ccc(N(CCC#N)CCC#N)cc2C)cc1 = > 100 µM (inactive)
• Cc1cc(C)c2c(=O)n(CC(O)CN3CCN(CCOCCO)CC3)sc2n1 (stereo not drawn) = 25.6 µM (inactive)
• CCCCCCOc1ccc(C(=O)NO)cc1 = 5.02 µM (inactive)
• COC(=O)C(Cc1ccccc1)NC(=O)CSc1nnc(COc2ccc(Cl)cc2)n1-c1ccccc1 (stereo not drawn) = 35.9 µM (inactive)
• N#CC12C3C4CC5C6C4C1C6C(O)(C53)N2Cc1ccccc1 (stereo not drawn) = > 100 µM (inactive)
• Cn1c(=O)c2c(nc3sc4ccccc4c(=O)n32)n(C)c1=O = > 100 µM (inactive)
• COc1ccc(N2C(=O)C3c4[nH]c5ccc(OC)cc5c4C4CCC(C(C)(C)C)CC4C3C2=O)cc1 (stereo not drawn) = 93.5 µM (inactive)
• CC1(F)C=CC(=O)C=C1 = 22.2 µM (inactive)
• NC(CCCCO)C(=O)O (stereo not drawn) = > 100 µM (inactive)
